Test system: PRKACA-PRKAR2A interaction (SmBiT-PRKACA / LgBiT-PRKAR2A), protein kinase A
Set-up: NanoLuc complementation counter-screen in cell extract, PRKACA with PRKAR2A, loss of luminescence, detects NanoLuc interference
CONDITION SUMMARY: counter-screen for NanoLuc interference; 0.5 h, 20 µM; inhibitor
Counter-ions that a name gives are not always drawn.
A collection of compounds and their measured Inh (PKA)
Form entry: value (%) — number only.

// query State, for PRKACA-PRKAR2A interaction (SmBiT-PRKACA / LgBiT-PRKAR2A), protein kinase A, measured Inh (PKA) of the compound listed here: `Nc1nc(NC2CC2)cc(-c2cccc(Cl)c2Cl)n1`
// result 10.71

// query Please respond with reported Inh (PKA) (system PRKACA-PRKAR2A interaction (SmBiT-PRKACA / LgBiT-PRKAR2A), protein kinase A) for `COc1cc2c(NC3CCN(C4CCCCC4)CC3)nc(N3CCCN(C(C)C)CC3)nc2cc1OCCCN1CCCCC1` .
// result 0.2399

// query GET Inh (PKA) | system: PRKACA-PRKAR2A interaction (SmBiT-PRKACA / LgBiT-PRKAR2A), protein kinase A | item: CN[C@@H]1[C@H](O[C@H]2[C@H](O[C@H]3[C@H](O)[C@@H](O)[C@H](N=C(N)N)[C@@H](O)[C@@H]3N=C(N)N)O[C@@H](C)[C@]2(O)C=O)O[C@@H](CO)[C@H](O)[C@H]1O [UM0142407:01, Streptomycin sulfate]
// result 1.585

// query Enter recorded Inh (PKA) with PRKACA-PRKAR2A interaction (SmBiT-PRKACA / LgBiT-PRKAR2A), protein kinase A for CCCCC(CC)CNC(=N)NC(=N)NCCCCCCNC(=N)NC(=N)NCC(CC)CCCC (stereo not drawn) [UM0118099:03, Alexidine dihydrochloride] here.
// result 24.16

// query GET Inh (PKA) | system: PRKACA-PRKAR2A interaction (SmBiT-PRKACA / LgBiT-PRKAR2A), protein kinase A | item: `c1ccc(-c2nn3c(c2-c2ccnc4cc(OCCN5CCOCC5)ccc24)CCC3)nc1`
// result -0.08675

// query Give Inh (PKA) for CC(O)c1cc(C(=O)N[C@@H](C)Cn2ccc(-c3ccc(C#N)c(Cl)c3)n2)n[nH]1 (stereo partly drawn) tested on PRKACA-PRKAR2A interaction (SmBiT-PRKACA / LgBiT-PRKAR2A), protein kinase A.
// result 2.703

====

Below, each entry is listed with its recorded Inh (PKA).
Tested on: PRKACA-PRKAR2A interaction (SmBiT-PRKACA / LgBiT-PRKAR2A), protein kinase A
Parameters: NanoLuc complementation counter-screen in cell extract, PRKACA with PRKAR2A, loss of luminescence, detects NanoLuc interference
CONDITION SUMMARY: counter-screen for NanoLuc interference; 0.5 h, 20 µM; inhibitor
Structures can show the parent of a compound that is named as a salt.
Numeric only. Scale: %

INSERT INTO results (compound, tested_on, value_reported) VALUES
  ('CN1CC[C@H](c2c(O)cc(O)c3c(=O)cc(-c4ccccc4Cl)oc23)[C@H](O)C1 [UM0142107:01, Flavopiridol hydrochloride]', 'PRKACA-PRKAR2A interaction (SmBiT-PRKACA / LgBiT-PRKAR2A), protein kinase A', 4.692),
  ('COc1ccc(Cn2ccc3ccc(C(=O)NO)cc32)cc1', 'PRKACA-PRKAR2A interaction (SmBiT-PRKACA / LgBiT-PRKAR2A), protein kinase A', 4.873),
  ('O=C(O)c1ccc(-c2c[nH]c3ncc(-c4ccccc4)cc23)cc1C1CCCC1', 'PRKACA-PRKAR2A interaction (SmBiT-PRKACA / LgBiT-PRKAR2A), protein kinase A', 18.1);

Let us move to another entry and its Inh (PKA).
// query Answer with the recorded Inh (PKA) for the compound listed here: `Cc1ccc(=O)n(-c2ccccc2)c1`
// result 0.9802

====

Consider the following molecules and their measured Inhibition percent readings.
TESTED ON: MeCP2-TBL1 interaction (MeCP2-SmBiT / TBL1-LgBiT) (Mus musculus, UniProt Q9QXE7)
Construct: expressed in transfected cells; crude lysate used as a cell-free assay
Sequence (Q9QXE7 166-527): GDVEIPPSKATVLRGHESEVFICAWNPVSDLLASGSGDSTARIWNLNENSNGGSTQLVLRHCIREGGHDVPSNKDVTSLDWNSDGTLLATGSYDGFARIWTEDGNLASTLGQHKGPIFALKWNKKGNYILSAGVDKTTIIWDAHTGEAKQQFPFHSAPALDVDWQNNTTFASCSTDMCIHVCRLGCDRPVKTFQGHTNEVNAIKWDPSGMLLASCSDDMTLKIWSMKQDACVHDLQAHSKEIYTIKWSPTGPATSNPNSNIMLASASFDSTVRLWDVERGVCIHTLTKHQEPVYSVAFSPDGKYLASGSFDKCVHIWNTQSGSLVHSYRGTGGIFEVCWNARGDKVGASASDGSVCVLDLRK
TEST NAME: MeCP2-TBL1 NanoLuc luciferase complementation assay (cell-free, extracts of transfected HEK293 cells);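 further: each compound tested at 20 µM final concentration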
Type: binding, human
CONDITION SUMMARY: primary screen of the Asinex library, sheet "Sargen output Asinex library", one well per compound, Batch Ref. 1
Entry rule: numbers only, all in %.

INSERT INTO assay_data (molecule, tested_on, readout_kind, value_reported) VALUES
  ('Oc1cccc2c1OC1(CCN(Cc3ccccc3)CC1)[C@H]1CCCO[C@H]21', 'MeCP2-TBL1 interaction (MeCP2-SmBiT / TBL1-LgBiT) (Mus musculus, UniProt Q9QXE7)', 'Inhibition percent', 0.73),
  ('COc1cccc2c1OC(C)(C)[C@H]1CC[C@H](C3CCN(CC(=O)O)CC3)O[C@H]21', 'MeCP2-TBL1 interaction (MeCP2-SmBiT / TBL1-LgBiT) (Mus musculus, UniProt Q9QXE7)', 'Inhibition percent', -1.85),
  ('CN(C)CCOc1cccc2c1OC(C)(C)[C@H]1C[C@H]3CN(C(=O)CCCC(=O)O)CC[C@@H]3O[C@H]21', 'MeCP2-TBL1 interaction (MeCP2-SmBiT / TBL1-LgBiT) (Mus musculus, UniProt Q9QXE7)', 'Inhibition percent', 0.07),
  ('COc1ccccc1-c1cccc(CN2C[C@@H](c3cc(F)cc(F)c3)[C@@]3(CCCCC(=O)N3)C2)c1', 'MeCP2-TBL1 interaction (MeCP2-SmBiT / TBL1-LgBiT) (Mus musculus, UniProt Q9QXE7)', 'Inhibition percent', 1.23);

// query Give the measured Inhibition percent for `O=C(COc1ncnc2ccccc12)N1C[C@@H]2CC[C@H](Oc3ccc(Cl)cc3)[C@@H]2C1`
// result 0.45

// query Determine its reported Inhibition percent: `O=C(O)CCC(=O)N[C@@H]1C[C@@H](Oc2cccc(Cl)c2)[C@H](O)[C@H]1N1CCc2ccccc2C1`
// result -0.68

// query Provide only the value of recorded Inhibition percent for O=C(c1ccccc1Cn1ccnc1)N1CCCC(c2cccc(Cc3ccc(F)cc3)n2)C1 (stereo not shown)
// result 1.46

====

// reported Inh (PKA) for each item listed
Test system: PRKACA-PRKAR2A interaction (SmBiT-PRKACA / LgBiT-PRKAR2A), protein kinase A
Parameters: NanoLuc complementation counter-screen in cell extract, PRKACA with PRKAR2A, loss of luminescence, detects NanoLuc interference
CONDITION SUMMARY: 0.5 h, 20 µM; inhibitor
Where a name gives a salt, the structure may show the parent alone.
Respond numerically; units are % and should not be typed.

INSERT INTO results (compound, value_reported) VALUES
  ('CCOC(=O)c1cncn1[C@H](C)c1ccccc1 [UM0133274:02, Etomidate]', 13.38);

// query Hello, please tell me recorded Inh (PKA) for this one: COc1cc2c3cc1Oc1c(OC)c(OC)cc4c1[C@@H](Cc1cccc(c1)Oc1ccc(c(O)c1)C[C@@H]3N(C)CC2)N(C)CC4 [UM0141561:06, Berbamine hydrochloride]
// result 0.4662

====

System: PRKACA-PRKAR2A interaction (SmBiT-PRKACA / LgBiT-PRKAR2A), protein kinase A
Design: NanoLuc complementation counter-screen in cell extract, PRKACA with PRKAR2A, loss of luminescence, detects NanoLuc interference
CONDITION SUMMARY: counter-screen for NanoLuc interference; 0.5 h, 20 µM; inhibitor
Structures can show the parent of a compound that is named as a salt.
Recorded measurements of Inh (PKA), one per entry
Enter your answer as a number in %; do not include the unit.

Illustrative cases are given below, each with its answer.
INSERT INTO results (molecule, readout_kind, value_reported) VALUES
  ('O=C(c1ccc(/C=C/c2n[nH]c3ccccc23)cc1)N1CCNCC1', 'Inh (PKA)', 34.71),
  ('Cn1cc(-c2ccc3nnc(Sc4ccc5ncccc5c4)n3n2)cn1', 'Inh (PKA)', 2.769);

// query Provide one value: measured Inh (PKA) of CCOC(=O)[C@H](CCc1ccccc1)N[C@H]1CCc2ccccc2N(CC(=O)O)C1=O [UM0121340:03, Benazepril HCl]
// result -0.4329

// query For the molecule `CN(C)S(=O)(=O)c1ccc2c(c1)/C(=C/c1cc3c([nH]1)CCCC3)C(=O)N2` , give its reported Inh (PKA).
// result 52.64

====

Test system: PRKACA-PRKAR2A interaction (SmBiT-PRKACA / LgBiT-PRKAR2A), protein kinase A
Set-up: NanoLuc complementation counter-screen in cell extract, PRKACA with PRKAR2A, loss of luminescence, detects NanoLuc interference
CONDITION SUMMARY: counter-screen for NanoLuc interference; 0.5 h, 20 µM; inhibitor
Peptide text beside a SMILES is read from it. * marks the point of attachment. Cbz = O=C(OCc1ccccc1)*
# Inh (PKA) values compiled below
All answers are understood in %, so give the number only.

Some solved entries appear below for comparison.
INSERT INTO assay_data (compound, tested_on, value_reported) VALUES
  ('N#Cc1ccc(C(c2ccc(C#N)cc2)n2cncn2)cc1 [UM0141390:01, Letrozole]', 'PRKACA-PRKAR2A interaction (SmBiT-PRKACA / LgBiT-PRKAR2A), protein kinase A', 1.331),
  ('CC(C)C[C@@H](C=O)NC(=O)[C@H](CC(C)C)NC(=O)[C@H](CC(C)C)NC(=O)OCc1ccccc1 [UM0141471:01, MG-132] (Cbz-Leu-Leu-Leu-aldehyde)', 'PRKACA-PRKAR2A interaction (SmBiT-PRKACA / LgBiT-PRKAR2A), protein kinase A', 6.639),
  ('CCn1c(N)c(C(=O)NC)c(=O)c2ccc(C#C[C@@](C)(O)COC)nc21 [UM0142483:01, SAR131675]', 'PRKACA-PRKAR2A interaction (SmBiT-PRKACA / LgBiT-PRKAR2A), protein kinase A', 0.3639),
  ('COCCOC(=O)C1=C(C)NC(C)=C(C(=O)OC(C)C)C1c1cccc([N+](=O)[O-])c1 (stereo not shown) [UM0142061:01, Nimodipine]', 'PRKACA-PRKAR2A interaction (SmBiT-PRKACA / LgBiT-PRKAR2A), protein kinase A', 89.11),
  ('Cc1cc2c(F)c(Oc3ncnn4cc(OC[C@@H](C)O)c(C)c34)ccc2[nH]1 [UM0141474:01, Brivanib (BMS-540215)]', 'PRKACA-PRKAR2A interaction (SmBiT-PRKACA / LgBiT-PRKAR2A), protein kinase A', 42.48);

// query Please report Inh (PKA) for the following compound: CCn1nnc2c(N3CCOCC3)nc(-c3ccc(NC(=O)Nc4ccc(C(=O)N5CCN(C)CC5)cc4)cc3)nc21 [UM0142067:01, PKI-402]
// result 0.4885

// query Let me know recorded Inh (PKA) for COc1ccc(C(=O)Nc2sc3c(c2C(N)=O)CCCC3)cc1OC [UM0127852:02, TCS 359] , thanks.
// result 19.65
